# credit: patent US6004994A

# inhibition at 100 µM annotations
# test_target: COX-1 (Ovis aries)
# Construct: purified enzyme from ram seminal vesicles; from tissue; host or cells: ram seminal vesicles
# Sequence (P05979 25-600): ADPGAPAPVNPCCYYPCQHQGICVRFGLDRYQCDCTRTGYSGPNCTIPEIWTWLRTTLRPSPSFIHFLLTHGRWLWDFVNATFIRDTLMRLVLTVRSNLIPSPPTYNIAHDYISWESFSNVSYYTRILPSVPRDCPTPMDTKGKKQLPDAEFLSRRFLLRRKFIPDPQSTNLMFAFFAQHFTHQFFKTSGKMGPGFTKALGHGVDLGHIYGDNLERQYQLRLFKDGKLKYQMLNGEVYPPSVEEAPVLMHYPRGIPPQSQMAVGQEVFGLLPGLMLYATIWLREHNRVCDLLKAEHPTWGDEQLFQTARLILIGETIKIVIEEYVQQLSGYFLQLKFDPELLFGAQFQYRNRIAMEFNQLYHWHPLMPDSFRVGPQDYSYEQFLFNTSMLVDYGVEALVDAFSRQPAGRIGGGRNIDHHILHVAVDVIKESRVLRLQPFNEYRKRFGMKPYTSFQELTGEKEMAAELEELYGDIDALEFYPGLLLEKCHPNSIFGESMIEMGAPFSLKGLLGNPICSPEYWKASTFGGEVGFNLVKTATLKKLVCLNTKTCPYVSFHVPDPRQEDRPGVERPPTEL
# measurement_notes: Inhibition of COX-1 enzymatic activity (PGE2 produced determined by EIA)
# Type: biochemical, ram (purified enzyme from ram seminal vesicles)
# study_conditions: 10^-4 M; ram seminal vesicle COX-1, arachidonic acid 6 μM
metric_name: inhibition at 100 µM

- compound: "CS(=O)(=O)c1ccc(/C(=C2\\N=C(c3ccccc3)OC2=O)c2ccc(Cl)cc2)cc1 [77 E isomer]"
  obs_value: "90%"
- compound: "CN1CC/C(=C(/c2ccc(Cl)cc2)c2ccc(S(C)(=O)=O)cc2)C1=O [28 Z isomer]"
  obs_value: "6%"
- compound: "CS(=O)(=O)c1ccc(/C(=C2\\CCN(C3CCCCC3)C2=O)c2ccc(Cl)cc2)cc1 [29 Z isomer]"
  obs_value: "72%"
- compound: "CS(=O)(=O)c1ccc(C(=C2CCN(Cc3ccccc3Cl)C2=O)c2ccc(Cl)cc2)cc1 [63 Z isomer]"
  obs_value: "83%"
- compound: "CN1CC/C(=C(\\c2ccc(S(C)(=O)=O)cc2)c2ccc(Cl)c(Cl)c2)C1=O [53 Z isomer]"
  obs_value: "36%"
- compound: "CS(=O)(=O)c1ccc(/C(=C2\\SC(=S)NC2=O)c2ccc(Cl)cc2)cc1 [78 E isomer]"
  obs_value: "37%"
- compound: "CS(=O)(=O)c1ccc(C(=C2CCN(CCc3ccccc3)C2=O)c2ccc(Cl)cc2)cc1 [60 Z isomer]"
  obs_value: "32%"
- compound: "CS(=O)(=O)c1ccc(C(=C2CCN(Cc3cccc(Cl)c3)C2=O)c2ccc(Cl)cc2)cc1 [62 Z isomer]"
  obs_value: "79%"
- compound: "CS(=O)(=O)c1ccc(/C(=C2\\CCN(Cc3ccccc3)C2=O)c2ccc(Cl)cc2)cc1 [31 Z isomer]"
  obs_value: "88%"
- compound: "CCN1CC/C(=C(/c2ccc(Cl)cc2)c2ccc(S(C)(=O)=O)cc2)C1=O [32 Z isomer]"
  obs_value: "13%"
